assay: soluble fraction after stress (log2 fold change); higher = more stays soluble; pooled small domains, quantitative proteomics; conditions: stress: 50 degC
soluble fraction (log2) by entry:

HMGRYDWIEQIDDPVLAERLKHLTEDDLELLTRYVFEDATQKELASQYGIGQQSVSKRLKKLKSFLTK | 0.00228
HMRLIALPSVTDISIRQAEATLMSIGIKVSSIQYAPSEYKDLVLEVKYRGQSIIQGAKIPEGSSVVLVAGN | -1.56

Q. Please look at this sequence and report its soluble fraction (log2): `HMLSNYIGMTLGEAKRNLGQGVNITVNGPNNDNAEVTGQDPTSGSSFDKSKDTITLTT`
A. 0.0581

Q. Please look at this sequence and report its soluble fraction (log2): `HMDSSNLSLIAGVGPTIEKKLRAAGITSWEQIAAWTEADVAKYDEELNLRGRITRDEWIEQAKELLAGKPP`
A. -0.0993

Q. Please look at this sequence and report its soluble fraction (log2): `HMQDREIHIHAGREVLEKELSRLSLHLKNTNLQEYAARFNVKTAEDILAGIGAGDIRPAHVVNLIADKL`
A. 0.0629

Q. Please look at this sequence and report its soluble fraction (log2): `HMLVMTDNVIKAINDLLNYEAAAGIKKKQRYTAYQIYKELSEQGVYHGSRRRMEEVVSKLRVERNQI`
A. -2.78

Q. Please look at this sequence and report its soluble fraction (log2): `HMENQFNDWSLTPSEKEVALFMLKGLSTQEIAAARNTKEKTVRQQASAVYAKSQLDGRYALAAWFFEDI`
A. -0.567

Q. Please look at this sequence and report its soluble fraction (log2): `HMNAIYKFVLGMIGKRSGVVTTLPSKKQVEFQANMLAEKFMQNGIDPNALKSPEQVKNVLANIDQ`
A. -0.737

====

assay: soluble fraction after stress (log2 fold change); higher = more stays soluble; pooled small domains, quantitative proteomics; conditions: stress: 50 degC
measure: soluble fraction (log2)

HMADLNFHQQIRSLPPEQQEILLLRFGQELTLRQIAQVTGVPLRTVQSRLRAALKKLKSQLEKEE | -0.39
HMKPQKRYLFEEVLTFLKHNSEKSFNYKQLGAAMEISNESDRFTLLETLEELKHQGFVVEKEIGKYQAKE | -0.527
HMDEVVVVERGGVQITMSEIDAKIMELPVDVRPSYLDSPERLQNFVSNLLLEKQAAQLKSQY | -0.153
HMEKKPYGEMHNVMLTDEELEKLRHDYPAHFAEYIQRLSLHIDAKGARYKSHYAVIRKWLIADGVKA | -0.679
HMDAVTYAKGSSGETVREIQQLLLDWGYYSGEVDGIFGSRTEDAVEYFQRKNGLTVDGKVGPATLEALGIS | -0.0183
HMISSRDAAVIGLVENIQRAQLNAIDESSGFKHLMETYNLESKEIALLVGKSRSYVSNSLRLSK | -0.0196
HMTVKKEIAKVKPTPLGWLRVRETPSLNGAEITKVNTGESYDVLDKETGWIKIKVSETVEGWVSDAYIELS | 0.236

Q. Please look at this sequence and report its soluble fraction (log2): `HMRARTLSTTGGESLLTLAESLYPDDDRARARFIEATAAANPKLFADIAALTRVLPAGTTLRMPDLRA`
A. 0.0417

====

assay: soluble fraction after stress (log2 fold change); higher = more stays soluble; pooled small domains, quantitative proteomics; details: stress: 50 degC
measure: soluble fraction (log2)

See these solved cases before continuing.
HMASATGVVTAASLNVRSGAGTNYSVVNTLAKGTKVTVLNTADGWYEIEATVNNEKITGYVSATYIAMD | 0.222
HMNPNYIKKLREKNQLTQEYLAAQIGVSRPTYAQIEQGQRGLTVTEAKKMADIFSLALDDFLAEKN | 0.0013
HMRGWGTVKRRTPKSGRYRASYIGPDGKRYAADHTYAAKVDADAWLSSERALITAGVWTPPTDRVT | -0.286
HMRSVPNVAGLGMDGAAFQLGKAGFAIGTITPADDPKAVVGSIQRTEPAAGTVADRDTVVNLFQV | 0.0939
HMRPIWVQLADDFRHRIVSGQWPPGSKIPSVRELAAETGVNPNTVQRALGALDGEGLTATERTAGRFVTT | -0.0768
HMESDAIAAAIAALPARYREVLLLRYDNGFSYSEISKALDMTEAAVRKTVQRAKEALQRTLQIQEEDT | -0.471
HMSARKVTVALHTRDHADRLRRLLKHEGVSADLVAARLSHKLTDHPIEVRVNEDDIPAVLRIIENIEIF | -1.31
HMQAATGVVTASVLNIRQGPGTNYTKVGSLLKGAQVEIVGQNGAWSKIRLKSGITGWVNSSYLKTST | -0.0664

Q. Please look at this sequence and report its soluble fraction (log2): `HMNFKNMIDSLSGILFKKDPSAAIIDIGGVRLKVFITVGSYEQLPAKGEQVEILTYLHVKEDILNLYG`
A. -0.242

Q. Please look at this sequence and report its soluble fraction (log2): `HMQNLETVEEIKELALNYLDKYQPSKKSLQVYLFRKAIDAQSNSVEKSEILKKIETVLTDLEEQGILNDAL`
A. 0.0664

Q. Please look at this sequence and report its soluble fraction (log2): `HMRSGEDESFSAGLLEYPHYTRPAEFEGHRIPDILTSGDHAKVDAWRQEMSEHITRERRPDLWEMYKKK`
A. 0.0901

Q. Please look at this sequence and report its soluble fraction (log2): `HMSFVAYEEEKAIGMVRLIGDGGMSFYIKDFAVLPGHQGKGVGQMLLMELQQYLLEHKPADWAVSLE`
A. -0.329
